tested on: L1210 leukemia ip in BDF1 mice, survival T/C; assay: NCI In Vivo Anticancer Drug Screen. Data for tumor model L1210 Leukemia (intraperitoneal) in B6D2F1 (BDF1) mice; conditions: endpoint: mean survival time; dose: 100.0 mg/kg/injection; schedule: Q01DX001 (ip); vehicle: saline with Tween-80; higher = longer survival
Inconclusive results and toxic doses are left out.
REPORTED METRIC: T/C

O=P(c1c(F)c(F)c(F)c(F)c1F)(c1c(F)c(F)c(F)c(F)c1F)c1c(F)c(F)c(F)c(F)c1F; 91 % of control
O=C(NC(=S)Nc1ccc(F)cc1)c1cccc([N+](=O)[O-])c1; 97 % of control
O=C(O)CCCCCN1C(=O)c2cccc([N+](=O)[O-])c2C1=O; 110 % of control
CCOC(=O)c1ccc(NC(=O)Nc2cc(OC)ccc2OC)cc1; 98 % of control

Prompt line: Reported T/C for CCCCCCCCCC(C)CCCCCCC (stereo not drawn) : what is it?
Response line: 103 % of control

Prompt line: Reported T/C for C[C-]=O.C[C-]=O.[Br][Pd][Br] : what is it?
Response line: 97 % of control

Prompt line: Reported T/C for O/N=C1\CN2CCC1CC2 : what is it?
Response line: 102 % of control

Prompt line: Reported T/C for Cc1c(/C=N/N(CCO)CCO)[nH]c(=O)[nH]c1=O : what is it?
Response line: 103 % of control

* * *

tested on: L1210 leukemia ip in BDF1 mice, survival T/C; experiment: NCI In Vivo Anticancer Drug Screen. Data for tumor model L1210 Leukemia (intraperitoneal) in B6D2F1 (BDF1) mice; settings: endpoint: mean survival time; dose: 50.0 mg/kg/injection; schedule: Q01DX001 (ip); vehicle: carboxymethylcellulose (CMC); higher = longer survival
Inconclusive results and toxic doses are left out.
The following compounds are listed with their measured T/C values.

O=C1C(=O)c2ccccc2C=C1C1CCCCC1; 97 % of control
O=C1c2cccc(S(=O)(=O)O)c2C(=O)c2c1cccc2S(=O)(=O)O; 109 % of control
O=C1OC2CC3CC1C2C3 (configuration not stated); 108 % of control
COc1cc(N(CCCl)CCCl)ccc1C=Nc1ccccc1C(=O)O; 100 % of control
O=C(CCCC(=O)OCC(F)(F)C(F)(F)C(F)(F)C(F)F)OCC(F)(F)C(F)(F)C(F)(F)C(F)F; 102 % of control
Cc1ccc(-c2c([N+](=O)[O-])ccc(Cl)c2[N+](=O)[O-])cc1; 102 % of control
c1ccc2c(c1)Cc1cc(CN3CCOCC3)ccc1-2; 92 % of control
S=C(S)N1CCOCC1.[Cu+2]; 88 % of control
CN(C)Cc1c(C=C(c2ccccc2)c2ccccc2)ccc2ccccc12; 94 % of control
Cc1ccc(Br)c([N+](=O)[O-])c1; 93 % of control

Prompt line: Reported T/C for Cc1cccc(NC(=O)N2CCN(c3ccccc3)CC2)c1 : what is it?
Response line: 106 % of control

Prompt line: Reported T/C for O=CN/N=C\c1cc2ccccc2c2ccccc12 : what is it?
Response line: 96 % of control

* * *

The following compounds are listed with their measured T/C values.
system: L1210 leukemia ip in BDF1 mice, survival T/C; assay: NCI In Vivo Anticancer Drug Screen. Data for tumor model L1210 Leukemia (intraperitoneal) in B6D2F1 (BDF1) mice; details: endpoint: mean survival time; dose: 50.0 mg/kg/injection; schedule: Q04DX002 (ip); vehicle: Klucel (hydroxypropylcellulose) (HPC); higher = longer survival
Toxic doses and inconclusive results are not listed.

NCCCNCC1C(c2ccccc2)C1c1ccccc1 (stereo not drawn); 114 % of control
[Br][Bi]([Br])([c]1ccccc1)([c]1ccccc1)[c]1ccccc1; 104 % of control
O=C1C=CC2C3C=CC(CC3)C12 (stereo not drawn); 89 % of control
Cc1ccc(NCC(=O)NN)cc1F; 109 % of control
O=c1cnc2ccc3ccccc3c2[nH]1; 93 % of control

Prompt line: Reported T/C for Cc1ccc(S(=O)(=O)N(CCCc2c(C)[nH]c(=S)[nH]c2=O)c2ccccc2)cc1 : what is it?
Response line: 91 % of control

Prompt line: Reported T/C for CCOC(=O)c1cccnc1NC(=O)c1ccccc1 : what is it?
Response line: 97 % of control

Prompt line: Reported T/C for Nc1ncnc2nc(-c3ccccc3)[nH]c12 : what is it?
Response line: 94 % of control

* * *

The following compounds are listed with their measured T/C values.
system: L1210 leukemia ip in BDF1 mice, survival T/C; test: NCI In Vivo Anticancer Drug Screen. Data for tumor model L1210 Leukemia (intraperitoneal) in B6D2F1 (BDF1) mice; settings: endpoint: mean survival time; dose: 6.25 mg/kg/injection; schedule: Q04DX003 (ip); vehicle: saline; higher = longer survival
Inconclusive results and toxic doses are left out.

Field: example entries. Status: answers known.
CC(C)(c1ccccc1)[N+](C)(C)C; 104 % of control
O=C1OCC(Cl)=C1Cl; 101 % of control
CNC(C)CC1CCCCC1 (centres undefined); 98 % of control

Here's the next entry for you.
Prompt line: Reported T/C for CC(=O)[O][Hg][c]1c(N)c(C)cc(C)c1F : what is it?
Response line: 101 % of control

* * *

system: L1210 leukemia ip in BDF1 mice, survival T/C; assay: NCI In Vivo Anticancer Drug Screen. Data for tumor model L1210 Leukemia (intraperitoneal) in B6D2F1 (BDF1) mice; conditions: endpoint: mean survival time; dose: 75.0 mg/kg/injection; schedule: Q01DX001 (ip); vehicle: carboxymethylcellulose (CMC); higher = longer survival
Toxic doses and inconclusive results are not listed.
The following molecules are listed with their measured T/C values.

Field: example entries. Status: answers known.
O=c1[nH]c2cc(Cl)ccc2c2c(Cl)cccc12; 91 % of control
Cc1ccc(S(=O)(=O)N/N=C2/C(=N/NS(=O)(=O)c3ccc(C)cc3)c3cccc4cccc2c34)cc1; 91 % of control
Cc1ccc2c(ccc(/C=C/c3ccc(O)c4ccccc34)[n+]2C)c1; 95 % of control
O=C(OC1CCCCCCC1OC(=O)c1ccc([N+](=O)[O-])cc1)c1ccc([N+](=O)[O-])cc1 (stereo not given); 93 % of control

Prompt line: Reported T/C for CC1=CC(=O)OC1=O (tested in a mixture with another compound) : what is it?
Response line: 109 % of control

* * *

The following compounds are listed with their measured T/C values.
tested on: L1210 leukemia ip in BDF1 mice, survival T/C; assay: NCI In Vivo Anticancer Drug Screen. Data for tumor model L1210 Leukemia (intraperitoneal) in B6D2F1 (BDF1) mice; conditions: endpoint: mean survival time; dose: 200.0 mg/kg/injection; schedule: Q01DX009 (ip); vehicle: Klucel (hydroxypropylcellulose) (HPC); higher = longer survival
Inconclusive results and toxic doses are left out.

Field: example entries. Status: answers known.
CCc1ccc(Nc2c([N+](=O)[O-])cc(C)cc2[N+](=O)[O-])cc1; 105 % of control
O=C(Nc1ccc(F)cc1)C(Br)C(Br)c1ccccc1 (stereo unspecified); 102 % of control
COc1ccc(/C=C/c2nc3ccccc3nc2/C=C/c2ccc(OC)c(OC)c2)cc1OC; 86 % of control

Prompt line: Reported T/C for Cc1ccc(Cl)cc1NS(=O)(=O)c1ccccc1[N+](=O)[O-] : what is it?
Response line: 93 % of control

Prompt line: Reported T/C for COC(=O)c1ccccc1NC(=O)Nc1ccccc1 : what is it?
Response line: 101 % of control

Prompt line: Reported T/C for CCOC(COc1ccccc1)c1ccccc1 (stereo unspecified) : what is it?
Response line: 113 % of control

Prompt line: Reported T/C for CNC(=O)Nc1cccc2c(=O)[nH][nH]c(=O)c12 : what is it?
Response line: 100 % of control

Prompt line: Reported T/C for CC(=O)N(C)c1ccc(NC(=O)Nc2ccccc2F)cc1 : what is it?
Response line: 95 % of control

Prompt line: Reported T/C for O=C(O)CCOC(C[N+](=O)[O-])C(Cl)(Cl)Cl (stereo unspecified) : what is it?
Response line: 97 % of control

Prompt line: Reported T/C for O=C(Nc1ccc(Cl)cc1)Nc1cccc2ccccc12 : what is it?
Response line: 89 % of control

* * *

Test system: L1210 leukemia ip in BDF1 mice, survival T/C
Assay: NCI In Vivo Anticancer Drug Screen. Data for tumor model L1210 Leukemia (intraperitoneal) in B6D2F1 (BDF1) mice
Details: endpoint: mean survival time; dose: 200.0 mg/kg/injection; schedule: Q01DX001 (ip); vehicle: saline; higher = longer survival
Description: The antitumor activity of compounds was measured in mice bearing transplantable tumors. Survival or tumor size were measured and the results are expressed as the measurement made in the treated group (T) divided by the measurement made in the vehicle treated control group (C). The tumor model used in this assay is L1210 Leukemia (intraperitoneal) in B6D2F1 (BDF1) mice
Inconclusive results and toxic doses are left out.
The following molecules are listed with their measured T/C values.

Field: example entries. Status: answers known.
CCC(C)(CCC(C)C)c1ccncc1 (centres undefined); 98 % of control
Nc1ccc(S(=O)(=O)NS(=O)(=O)c2ccccc2)cc1; 93 % of control
Cc1[nH]c(=O)[nH]c(=O)c1CCO; 102 % of control
CCOC1(OCC)C([N+](=O)[O-])=CC(=[N+]([O-])O)C=C1[N+](=O)[O-]; 98 % of control
CN(C(=O)OCc1ccccc1)c1ccc(C(=O)O)cc1; 94 % of control
c1ccc(P(OCCCCOP(c2ccccc2)c2ccccc2)c2ccccc2)cc1; 86 % of control
O=c1[nH]c2ccc(Cl)cc2c(=O)o1; 95 % of control
CCN(CC)CCOc1cc(C)ccc1C(C)C; 113 % of control
Nc1nc(N)c(N=O)c(=O)[nH]1; 95 % of control
CC(=O)Oc1cccc(/C=C2/N=C(C)OC2=O)c1; 92 % of control

Prompt line: Reported T/C for CCC([N+](=O)[O-])S(=O)(=O)c1ccc(C)cc1 (centres undefined) : what is it?
Response line: 95 % of control

Prompt line: Reported T/C for COc1ccc(NCC(O)CN2CCCC2)cc1 (centres undefined) : what is it?
Response line: 104 % of control

Prompt line: Reported T/C for CCCCSC(=O)C(O)c1ccccc1 (centres undefined) : what is it?
Response line: 104 % of control

Prompt line: Reported T/C for CC(C)CCN : what is it?
Response line: 112 % of control
